// reported MIC per item
- System: VISA clinical isolates of MRSA (VI-MRSA) and of MSSA (VI-MSSA)
- experimental-protocol: microbe, parasite or virus in culture
- Type: cell-based, Staphylococcus aureus
- experimental-setup: Staphylococcus aureus, SA MER-S20, VI-MSSA, France

>  <compound-structure>
Cc1cc(=O)n2c3c(c4c(cc13)c(CO)cc(=O)n4C)OC2

>  <endpoint-name>
MIC

>  <result>
> 64 µg/mL

$$$$
>  <compound-structure>
CN[C@H](CC(C)C)C(=O)N[C@H]1C(=O)N[C@@H](CC(N)=O)C(=O)N[C@H]2C(=O)N[C@H]3C(=O)N[C@H](C(=O)N[C@H](C(=O)O)c4cc(O)cc(O)c4-c4cc3ccc4O)[C@H](O)c3ccc(c(Cl)c3)Oc3cc2cc(c3O[C@@H]2O[C@H](CO)[C@@H](O)[C@H](O)[C@H]2O[C@H]2C[C@](C)(N)[C@H](O)[C@H](C)O2)Oc2ccc(cc2Cl)[C@H]1O

>  <endpoint-name>
MIC

>  <result>
4 µg/mL

$$$$

Let us examine a further case.
Per the records, this compound ( Cc1cc(=O)n(C)c2c3c4c(cc12)c(C)cc(=O)n4CO3 ) has MIC equal to > 64 µg/mL

* * *

- Test system: VRSA clinical isolates
- experimental-protocol: microbe, parasite or virus in culture
- Assay type: cell-based
- experimental-setup: Staphylococcus aureus, VRS4, VRSA, New York
// reported MIC per item
API: value field is a number in mg/L; no unit string.

Here are 2 compounds together with their reported answers.
>  <compound>
C[C@@H]1CN(c2c(F)c(N)c3c(=O)c(C(=O)O)cn(C4CC4)c3c2F)C[C@H](C)N1 [SPFX, sparfloxacin]

>  <unit-of-measurement>
mg/L

>  <MIC>
16

$$$$
>  <compound>
C[C@H]1COc2c(N3CCN(C)CC3)c(F)cc3c(=O)c(C(=O)O)cn1c23 [LVFX, levofloxacin]

>  <unit-of-measurement>
mg/L

>  <MIC>
32

$$$$

Per the records, this compound ( Cc1cc(=O)n2c3c(c4c(cc13)c(CO)cc(=O)n4C)OC2 [NM, nybomycin] ) has MIC equal to 0.125

Per the records, this compound ( CCn1cc(C(=O)O)c(=O)c2cc(F)c(N3CCNCC3)cc21 [NFLX, norfloxacin] ) has MIC equal to 128

Per the records, this compound ( CC1COc2c(N3CCN(C)CC3)c(F)cc3c(=O)c(C(=O)O)cn1c23 (stereo not shown) [OFLX, ofloxacin] ) has MIC equal to 32

* * *

- Tested on: Enterococcus faecalis
- experimental-protocol: MIC measurement, Test Example 6 (enterococcus)
- Type: cell-based
- experimental-setup: Enterococcus faecalis, NCTC 12201 / VRE, E. faecalis NCTC12201, vancomycin-resistant (VRE), quinolone-susceptible enterococci; read-out: MIC
- Experimental: Each of the bacterial strains listed in Table 1-1 was shake-cultured at 37° C. overnight in 4 mL of a medium (Tryptical Soy Broth: TSB, product of Becton Dickinson and Company). FDA209P was used as a control. […] After completion of culturing, the growth of the bacteria was visually determined based on turbidity to measure MIC in each bacterial strain. […]
Where a name gives a salt, the structure may show the parent alone.
// reported MIC per item
API: value field is a number in µg/mL; no unit string.

Here are 3 compounds together with their reported answers.
>  <compound>
Cc1cc(=O)n(C)c2c3c4c(cc12)c(C)cc(=O)n4CO3

>  <measured-target>
Enterococcus faecalis

>  <unit-of-measurement>
µg/mL

>  <number>
16

$$$$
>  <compound>
CC1COc2c(N3CCN(C)CC3)c(F)cc3c(=O)c(C(=O)O)cn1c23 (stereo not shown)

>  <measured-target>
Enterococcus faecalis

>  <unit-of-measurement>
µg/mL

>  <number>
2

$$$$
>  <compound>
CCn1cc(C(=O)O)c(=O)c2cc(F)c(N3CCNCC3)cc21

>  <measured-target>
Enterococcus faecalis

>  <unit-of-measurement>
µg/mL

>  <number>
2

$$$$

Let us examine a further case.
Assay Enterococcus faecalis, sample NC1CCN(c2nc3c(cc2F)c(=O)c(C(=O)O)cn3-c2ccc(F)cc2F)C1 (stereo not shown) [TFLX, tosufloxacin tosylate] , MIC read: 0.25

* * *

- Tested on: VISA clinical isolates of MRSA (VI-MRSA) and of MSSA (VI-MSSA)
- experimental-protocol: microbe, parasite or virus in culture
- Format: cell-based, Staphylococcus aureus
- experimental-setup: Staphylococcus aureus, HIP13057, VI-MRSA, America
endpoint-name: MIC

Here are 2 compounds together with their reported answers.
>  <compound>
CN[C@H](CC(C)C)C(=O)N[C@H]1C(=O)N[C@@H](CC(N)=O)C(=O)N[C@H]2C(=O)N[C@H]3C(=O)N[C@H](C(=O)N[C@H](C(=O)O)c4cc(O)cc(O)c4-c4cc3ccc4O)[C@H](O)c3ccc(c(Cl)c3)Oc3cc2cc(c3O[C@@H]2O[C@H](CO)[C@@H](O)[C@H](O)[C@H]2O[C@H]2C[C@](C)(N)[C@H](O)[C@H](C)O2)Oc2ccc(cc2Cl)[C@H]1O

>  <measured-target>
VISA clinical isolates of MRSA (VI-MRSA) and of MSSA (VI-MSSA)

>  <endpoint-name>
MIC

>  <result>
4 µg/mL

$$$$
>  <compound>
C[C@H]1COc2c(N3CCN(C)CC3)c(F)cc3c(=O)c(C(=O)O)cn1c23

>  <measured-target>
VISA clinical isolates of MRSA (VI-MRSA) and of MSSA (VI-MSSA)

>  <endpoint-name>
MIC

>  <result>
16 µg/mL

$$$$

Per the records, this compound ( CC1COc2c(N3CCN(C)CC3)c(F)cc3c(=O)c(C(=O)O)cn1c23 (stereo not drawn) ) has MIC equal to 32 µg/mL

* * *

- System: VISA clinical isolates of MRSA (VI-MRSA) and of MSSA (VI-MSSA)
- experimental-protocol: microbe, parasite or virus in culture
- Type: cell-based, Staphylococcus aureus
- experimental-setup: Staphylococcus aureus, LY-1999-01, VI-MSSA, Oman
Where a name gives a salt, the structure may show the parent alone.
// reported log10(MIC) per item
Form field - Quantity: MIC; Unit: µg/mL; Scale: log10

Here are 4 compounds together with their reported answers.
>  <compound>
CC1COc2c(N3CCN(C)CC3)c(F)cc3c(=O)c(C(=O)O)cn1c23 (stereo not drawn)

>  <measured-target>
VISA clinical isolates of MRSA (VI-MRSA) and of MSSA (VI-MSSA)

>  <log10(MIC)>
0.90

$$$$
>  <compound>
CN[C@H](CC(C)C)C(=O)N[C@H]1C(=O)N[C@@H](CC(N)=O)C(=O)N[C@H]2C(=O)N[C@H]3C(=O)N[C@H](C(=O)N[C@H](C(=O)O)c4cc(O)cc(O)c4-c4cc3ccc4O)[C@H](O)c3ccc(c(Cl)c3)Oc3cc2cc(c3O[C@@H]2O[C@H](CO)[C@@H](O)[C@H](O)[C@H]2O[C@H]2C[C@](C)(N)[C@H](O)[C@H](C)O2)Oc2ccc(cc2Cl)[C@H]1O

>  <measured-target>
VISA clinical isolates of MRSA (VI-MRSA) and of MSSA (VI-MSSA)

>  <log10(MIC)>
0.60

$$$$
>  <compound>
C[C@H]1COc2c(N3CCN(C)CC3)c(F)cc3c(=O)c(C(=O)O)cn1c23

>  <measured-target>
VISA clinical isolates of MRSA (VI-MRSA) and of MSSA (VI-MSSA)

>  <log10(MIC)>
0.60

$$$$
>  <compound>
Cc1onc(-c2ccccc2)c1C(=O)N[C@@H]1C(=O)N2[C@@H]1SC(C)(C)[C@@H]2C(=O)O

>  <measured-target>
VISA clinical isolates of MRSA (VI-MRSA) and of MSSA (VI-MSSA)

>  <log10(MIC)>
0.00

$$$$

Assay VISA clinical isolates of MRSA (VI-MRSA) and of MSSA (VI-MSSA), sample CCn1cc(C(=O)O)c(=O)c2cc(F)c(N3CCNCC3)cc21 , log10(MIC) read: 1.20

Assay VISA clinical isolates of MRSA (VI-MRSA) and of MSSA (VI-MSSA), sample Cc1cc(=O)n2c3c(c4c(cc13)c(CO)cc(=O)n4C)OC2 , log10(MIC) read: -0.90

Assay VISA clinical isolates of MRSA (VI-MRSA) and of MSSA (VI-MSSA), sample C[C@@H]1CN(c2c(F)c(N)c3c(=O)c(C(=O)O)cn(C4CC4)c3c2F)C[C@H](C)N1 , log10(MIC) read: 0.30

Assay VISA clinical isolates of MRSA (VI-MRSA) and of MSSA (VI-MSSA), sample NC1CCN(c2nc3c(cc2F)c(=O)c(C(=O)O)cn3-c2ccc(F)cc2F)C1 (stereo not drawn) [TFLX, tosufloxacin tosylate] , log10(MIC) read: 0.90
